test system: CCRF-CEM leukemia; test: NCI tumour cell line growth inhibition, 48 h
Readout: TGI

Answered examples (5):
compound="CC(=O)c1ccc(NC(=O)C(=O)C(C(=O)c2ccc(Cl)c(Cl)c2)C2OC(=O)c3ccccc32)cc1 (stereo not given)" recorded_result="> 100 µM"
compound="CCCCCCCCCCCCCCCCCC(=O)OCC(C[As](=O)(O)O)OC(=O)CCCCCCCCCCCCCCCCC (stereo not given)" recorded_result="> 100 µM"
compound=CCOC(=O)N1CCN(c2nc(C)n(-c3ccccc3)c(=S)c2C#N)CC1 recorded_result="> 62.6 µM"
compound=O=C1OC(c2ccccc2)=N/C1=C\c1cc(Cl)ccc1Cl recorded_result="66.8 µM"
compound=N#CCCOCN(CO)c1nc(N(CO)COCCC#N)nc(N(CO)COCCC#N)n1 recorded_result="58 µM"

Each compound below has a reported value. Please supply its TGI.
1. COC(=O)C1=C(c2ccc3c(c2)OCO3)OC(c2ccc3c(c2)OCO3)C1 (stereo not given)
2. COc1cc([C@H]2CC(=O)C[C@@H](c3cc(OC)c(OC)c(OC)c3)C23C(=O)c2ccccc2C3=O)cc(OC)c1OC

Return:
> 100 µM
> 100 µM

Each compound below has a reported value. Please supply its TGI.
1. O=C(Nc1sccc1S(=O)(=O)c1ccc(Cl)cc1)c1ccccc1
2. O=C(Cc1ccccc1)NC(c1ccc(Cl)cc1)c1c(O)ccc2ccccc12 (stereo not given)
3. NC1=CC(=O)c2nc3ccccc3c3ccnc1c23

Return:
["> 100 µM", "26.7 µM", "> 100 µM"]

---

test system: K-562 leukemia; test: NCI tumour cell line growth inhibition, 48 h
For each of the molecules below, state its TGI.

Answered examples (8):
molecule=CO/N=C(\C(=O)Nc1cncs1)c1csc(N)n1 recorded_result="> 10 µM"
molecule=C/C=N\n1c(C)c(C#N)c(C#N)c1N recorded_result="> 100 µM"
molecule=Cc1coc2c1C(=O)C(=O)c1c-2ccc2c1CCCC2(C)C recorded_result="11.5 µM"
molecule="O=C(Nc1cccc([N+](=O)[O-])c1)C(=O)C(C(=O)c1ccccc1F)C1OC(=O)C2C=CC=CC21 (stereo not given)" recorded_result="> 100 µM"
molecule="CCN(CC)CCCC(Cc1ccccc1)Nc1c2ccc(Cl)cc2nc2ccc(OC)cc12 (stereo not given)" recorded_result="2.89 µM"
molecule=COc1cc([C@H]2CC(=O)C[C@@H](c3cc(OC)c(OC)c(OC)c3)C23C(=O)c2ccccc2C3=O)cc(OC)c1OC recorded_result="> 100 µM"
molecule="O=NN/C(=C1\\Nc2ccc([N+](=O)[O-])cc2NC1=O)C(O)c1ccc([N+](=O)[O-])cc1 (stereo not given)" recorded_result="> 100 µM"
molecule=N=c1n(Cc2ccccc2)c(N)cc(=O)n1Cc1ccccc1 recorded_result="> 100 µM"

Each molecule below has a reported value. Please supply its TGI.
1. Cc1ccc2ccc3ccc(C)nc3c2n1
2. CN(C)C1(N(C)C)Oc2c(c(=O)n(C)c(=O)n2C)C(c2ccccc2Br)C1(F)F (stereo not given)
3. CCN(CC)CCCCNc1ncc2cc(-c3cc(OC)cc(OC)c3)c(NC(=O)NC(C)(C)C)nc2n1
4. C[C@H](N[C@H]1CCC[C@]1(O)C#Cc1ccc2c(c1)OCO2)c1ccccc1
5. CC1OC(OC2C(CO)OC(O[C@H]3CC[C@@]4(C)C(=CC[C@H]5[C@@H]6C[C@@H]7O[C@](O)(CC[C@H](C)COC8OC(CO)C(O)C(O)C8O)[C@@H](C)[C@@H]7[C@@]6(C)CC[C@@H]54)C3)C(OC3OC(C)C(O)C(O)C3O)C2O)C(O)C(O)C1O (stereo not given in full)
6. CNCCCNC1(c2cc3ccccc3s2)CCCCC1

Return:
> 100 µM
> 100 µM
9.37 µM
> 25 µM
> 33.4 µM
4.11 µM

Each molecule below has a reported value. Please supply its TGI.
1. N#Cc1cc(N(CCCl)CCCl)c([N+](=O)[O-])cc1[N+](=O)[O-]
2. Oc1ccc(-c2cn3cc(Cl)sc3n2)cc1
3. COc1ccc2nc3cc([N+](=O)[O-])ccc3c(Nc3ccc(S(=O)(=O)N=C(N)N)cc3)c2c1

Return:
["> 100 µM", "> 100 µM", "63.1 µM"]

The reported measurements were obtained from PubChem BioAssay (NCI).
